Activity reference
Tested on: Rotifers
Experiment: Protection against doxorubicin-induced toxicity in Rotifers assessed as viability at 10 uM after 24 hrs
Format: functional, Rotifera
Enter your answer as a number in %; do not include the unit.

# count of solved cases: 4
# compound-structure, target, observed-result
measured = [
    ("CC(C)(CNC(=O)CCC(F)(F)C(F)(F)C(F)(F)C(F)(F)C(F)(F)C(F)(F)F)/[N+]([O-])=C/c1ccc(CNC(=O)[C@H](O)[C@H](O)[C@H](O[C@@H]2O[C@H](CO)[C@H](O)[C@H](O)[C@H]2O)[C@@H](O)CO)cc1", "Rotifers", 30.6),
    ("CCCCCCCC(=O)NCC(C)(C)/[N+]([O-])=C/c1ccc(CNC(=O)[C@H](O)[C@H](O)[C@H](O[C@@H]2O[C@H](CO)[C@H](O)[C@H](O)[C@H]2O)[C@@H](O)CO)cc1", "Rotifers", 85.8),
    ("CC(C)(C)/[N+]([O-])=C/c1ccccc1", "Rotifers", 18.7),
    ("CCCCCCCC(=O)NCc1ccc(/C=[N+](\\[O-])C(C)(C)CNC(=O)[C@H](O)[C@H](O)[C@H](O[C@@H]2O[C@H](CO)[C@H](O)[C@H](O)[C@H]2O)[C@@H](O)CO)cc1", "Rotifers", 96.5),
]

Next, consider the following compound.
Exercise: // returns reported Activity for input CC(C)(CNC(=O)[C@H](O)[C@H](O)[C@H](O[C@@H]1O[C@H](CO)[C@H](O)[C@H](O)[C@H]1O)[C@@H](O)CO)/[N+]([O-])=C/c1ccc(CNC(=O)CCC(F)(F)C(F)(F)C(F)(F)C(F)(F)C(F)(F)C(F)(F)F)cc1
Key: 46.7

* * *

Test: Solubility in water
Assay type: physicochemical
Reported solubility by item:
Provide only the numeric value, understood in mg/mL.

# compound-structure, unit, solubility
records = [
    ("CCCCCCCC(=O)NCc1ccc(/C=[N+](\\[O-])C(C)(C)CNC(=O)[C@H](O)[C@H](O)[C@H](O[C@@H]2O[C@H](CO)[C@H](O)[C@H](O)[C@H]2O)[C@@H](O)CO)cc1", "mg/mL", 530),
    ("CC(C)(CNC(=O)[C@H](O)[C@H](O)[C@H](O[C@@H]1O[C@H](CO)[C@H](O)[C@H](O)[C@H]1O)[C@@H](O)CO)/[N+]([O-])=C/c1ccc(CNC(=O)CCC(F)(F)C(F)(F)C(F)(F)C(F)(F)C(F)(F)C(F)(F)F)cc1", "mg/mL", 270),
]

Please examine the following record next.
Exercise: Value lookup for solubility; key = CCCCCCCC(=O)NCC(C)(C)/[N+]([O-])=C/c1ccc(CNC(=O)[C@H](O)[C@H](O)[C@H](O[C@@H]2O[C@H](CO)[C@H](O)[C@H](O)[C@H]2O)[C@@H](O)CO)cc1
Key: 515
